For each of the binders below, state its Neut IC50 subtype A.
# system name: RSV F protein of recombinant mKate-RSV, subtype A (strain A2) (Respiratory syncytial virus subtype A …, UniProt P03420 26-574)
# assay method text: cell-based or functional assay

- binder: "ADI-14511 (antibody, V domains shown, full-length IgG (yeast-expressed); also called Antibody Number 72; Ab# 72) VH: EVQLLESGAEVKKPGSSVKVSCKVAGGTFSDYAISWVRQAPGQGLEYLGGIIPAFKRAMYPRKFQDRVTITADESTSTAYMELRGLRSEDTALYYCARPAGDFGDLKWLRSPFDYWGQGTLVTVSS VL: DIVLTQSPATLSVSPGERATLSCRASEGVGINLAWYQQKPGQAPRLLIYGASTRATDIPARFSGSGSGTDFTLTISSLQSEDFAVYYCQQYNDWPPQLTFGPGTKVDIK"
  assay value: "> 10 µg/mL"
- binder: "ADI-14470 (antibody, V domains shown, full-length IgG (yeast-expressed); also called Antibody Number 33; Ab# 33) VH: QVTLKESGPALVKPTETLTLTCTFSGFSLSTKRLSVSWIRQPPGKALEWLARIDWDDDKSYSTSLRTRLTIAKDTSKNQVVLTMTNMGPADTATYFCVRSSVYASNAYYLYYFDSWGQGTLVTVSS VL: DIRMTQSPSSLSASVGDRVTITCRASQSIATYLNWYQHKPGKAPTLLIYAASILHSGVPPRFSGRASGTDFTLTISSLQPEDFATYYCQQAYSSPYTFGQGTKVDIK"
  assay value: "0.226 µg/mL"

Qu. Specify measured Neut IC50 subtype A for ADI-14457 (antibody, V domains shown, full-length IgG (yeast-expressed); also called Antibody Number 20; Ab# 20) VH: QVTLKESGPALVRPKQTLTLTCSFSGFSLDTQRTGVNWIRQSPGKALEWLARIDWDGNIYSSTSVRTKLSISKGTSKNQVVLTMTDVDPVDTATYYCARTLYYTSGGYYLNLFDYWGQGTLVTVSS VL: EIVMTQSPPSLSASVGDRVTITCRASQTIPSYVNWYQQISGKAPRLLIYAASLLQSGVPSRFSGSGSGTEFSLTISGLRPEDFGTYYCQQSYSSTPTFGQGTKVEIK .
Ans. 0.2 µg/mL
